Sourced from patent US7820659B2

molecular target: recombinant human 11β-HSD type 1 enzyme (Homo sapiens); assay: 11β-HSD Type 1 Enzyme Assay (NADPH fluorescence); settings: three hour incubation at room temperature, read-out: Human 11-βHSD1 IC50
Sequence (P28845 whole entry): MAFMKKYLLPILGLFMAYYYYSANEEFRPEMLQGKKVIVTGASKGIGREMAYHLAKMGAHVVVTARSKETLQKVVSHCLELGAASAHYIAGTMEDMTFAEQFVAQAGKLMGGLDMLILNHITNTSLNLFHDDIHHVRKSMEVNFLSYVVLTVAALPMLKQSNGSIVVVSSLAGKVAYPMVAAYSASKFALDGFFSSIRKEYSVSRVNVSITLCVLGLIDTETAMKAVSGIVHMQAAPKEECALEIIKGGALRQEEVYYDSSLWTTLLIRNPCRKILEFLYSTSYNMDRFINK
property: IC50 (nM)
Lab book: enter the figure in nM, no units written.

Past entries and their recorded results:
{"columns": ["compound", "number"],
 "data": [
  ["O=C1[C@H](Cc2c(Cl)cc(-c3ccc(N4CCOCC4)nc3F)cc2Cl)CCN1C1CCc2[nH]cnc2C1 (some centres unmarked)", 175],
  ["O=C1[C@H](Cc2c(Cl)cc(-c3ccc(N4CCOCC4)cc3)cc2Cl)CCN1C1CCc2[nH]cnc2C1 (some centres unmarked)", 75.4],
  ["O=C1C(Cc2c(Cl)cc(-c3ccc(Cl)cc3)cc2Cl)CCN1C1CCc2nc[nH]c2C1 (centres unmarked)", 325],
  ["O=C(c1ccc(-c2cc(Cl)c(C[C@@H]3CCN(C4CCc5nc[nH]c5C4)C3=O)c(Cl)c2)cc1)N1CCC(C(F)(F)F)CC1 (some centres unmarked)", 143]
]}

Kindly consider the entry below.
Quote IC50 with test system recombinant human 11β-HSD type 1 enzyme (Homo sapiens) for O=C1C(Cc2c(Cl)cc(-c3ccc(F)cc3)cc2Cl)CCN1C1CCc2[nH]cnc2C1 (centres unmarked)
214
